Each record here notes measured protein stability index.
B1: MLL5 (parent)
chain: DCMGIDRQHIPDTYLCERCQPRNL

# Variants of: B1
# assay_details: protein stability index of a GFP-peptide fusion (GPS, HEK-293T) (PSI 1-6); higher = more stable;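 note: lentivirally expressed fusions sorted by FACS into six bins by GFP to DsRed ratio, PSI derived from sequencing read proportions per bin multiplied by bin number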
# condition_label: c terminus: a fixed tail appended
Form field (numeric): enter value without unit.

{"variant_annotation": "P21G", "observed_property": "protein stability index", "data_value": 3.45}
{"variant_annotation": "M3D", "observed_property": "protein stability index", "data_value": 3.75}
{"variant_annotation": "T13V", "observed_property": "protein stability index", "data_value": 3.34}

[in] Return value of protein stability index for input N23K , no commentary.
[out] 2.73

[in] Return value of protein stability index for input I10K , no commentary.
[out] 3.04

Data origin, for the record: the supplement of paper PMC10567573
